Cited source: patent US20110118131A1

Collected fold difference in affinity vs parental values appear next to each entry.
studyTarget: T1, IL-1beta (UniProt P01584 117-269)
T1 construct: also called IL-1β
assayComment: Biacore

{"binder": "XPA23 Fab, heavy chain D106E (Fab, V domains shown) VH: EVQLLESGGGLVQPGGSLRLSCAASGFTFSKYFMFWVRQAPGKGLEWVSVISPSGGMTRYADSVKGRFTISRDNSKNTLYLQMNSLRAEDTAVYYCARVGYGGNSEYWGQGTLVTVSS VL: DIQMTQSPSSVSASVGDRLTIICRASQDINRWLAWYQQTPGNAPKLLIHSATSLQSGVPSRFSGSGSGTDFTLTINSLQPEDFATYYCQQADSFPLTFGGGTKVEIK", "resultUnit": "fold", "fold difference in affinity vs parental": 0.04}
{"binder": "XPA23 Fab, heavy chain F33Q (Fab, V domains shown) VH: EVQLLESGGGLVQPGGSLRLSCAASGFTFSKYQMFWVRQAPGKGLEWVSVISPSGGMTRYADSVKGRFTISRDNSKNTLYLQMNSLRAEDTAVYYCARVGYGGNSDYWGQGTLVTVSS VL: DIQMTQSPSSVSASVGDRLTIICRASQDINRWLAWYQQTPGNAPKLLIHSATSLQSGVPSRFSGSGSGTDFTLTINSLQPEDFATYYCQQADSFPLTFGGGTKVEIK", "resultUnit": "fold", "fold difference in affinity vs parental": 0.78}
{"binder": "XPA23 Fab, heavy chain Y107W (Fab, V domains shown) VH: EVQLLESGGGLVQPGGSLRLSCAASGFTFSKYFMFWVRQAPGKGLEWVSVISPSGGMTRYADSVKGRFTISRDNSKNTLYLQMNSLRAEDTAVYYCARVGYGGNSDWWGQGTLVTVSS VL: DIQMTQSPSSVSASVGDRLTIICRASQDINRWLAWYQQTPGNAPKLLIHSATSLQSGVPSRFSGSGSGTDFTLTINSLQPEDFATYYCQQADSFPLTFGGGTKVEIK", "resultUnit": "fold", "fold difference in affinity vs parental": 0.89}
